assay explanation: CEETOX_H295R_OHPREG: CeeTox H295R High-throughput Steroidogenesis Assay for OH-Pregnenolone (OHPREG) (AID 2283434)
experimental conditions: actives raise or lower the signal
Procedure: CEETOX_H295R is a cell-based, multiplexed-readout assay that uses H295R, a human adrenal gland cell line, with measurements taken at 48 hours after chemical dosing in a 96-well plate.CEETOX_H295R_OHPREG is one of 23 assay component(s) measured or calculated from the CEETOX_H295R assay. […] This assay endpoint, CEETOX_H295R_OHPREG, was analyzed with bidirectional fitting relative to DMSO as the negative control and baseline of activity. […]
Calls of active or inactive are those of the source. The calls were made as follows: active = hit-call score of the fitted dose curve at least 0.9, where 1 is the maximum; inactive = score below 0.9.
Result category, one only: t for active, f for inactive

A selection of reference data follows.
INSERT INTO measurements (compound, group) VALUES
  ('C[C@]12C=CC3=C4CCC(=O)C=C4CC[C@H]3[C@@H]1CC[C@@H]2O', 't'),
  ('CCOc1cccc(C2(N3CCN(c4ccccc4)CC3)CCC(C)CC2)c1 (centres undefined)', 't'),
  ('Cn1cc(-c2ccccc2)c(=O)c(-c2cccc(C(F)(F)F)c2)c1', 'f'),
  ('COP(=S)(OC)SCN1C(=O)c2ccccc2C1=O', 'f'),
  ('O=P(OCCCl)(OCCCl)OCCCl', 'f'),
  ('Nc1ccc(Oc2ccc(N)cc2)cc1', 't'),
  ('Nc1ccc(Cl)cc1N', 't'),
  ('O=C(Nc1ccccc1)c1ccccc1I', 't');

Please examine the following record next.
Record request — test call for "c1ccc(N=Nc2ccccc2)cc1"
f
